Reference source for all entries: patent US12123048B2

# method: Fluorescence of control wells containing enzyme substrate in LB broth without spores
# Type: physicochemical
# measurement_parameters: pH 6 LB broth, substrate 0.3 mg/mL, 60° C., 10 seconds
# Method: Luria-Bertani (LB) broth was prepared by dissolving tryptone (10 g/L), yeast extract (5 g/L), and NaCl (5 g/L) in deionized water. […] LB broth (pH 7) containing 6′-fluoro-4′-methylumbelliferyl α-D-glucopyranoside (0.3 mg/mL) (enzyme substrate of Example 1) was added to two wells (100 microliters per well) of a black 96-well microtiter plate with optically clear, flat bottom wells (NUNC #165301, Thermo Fisher Scientific). […] A Synergy Neo2 fluorescence plate reader (BioTek Company) was used. […]
The compounds listed here are annotated with their mean fluorescence values detected for the control wells.
measured_parameter: mean fluorescence values detected for the control wells

1. Cc1cc(=O)oc2cc(O[C@H]3O[C@H](CO)[C@@H](O)[C@H](O)[C@H]3O)ccc12 | 868 RFU
2. Cc1cc(=O)oc2cc(O[C@H]3O[C@H](CO)[C@@H](O)[C@H](O)[C@H]3O)c(F)cc12 | 978 RFU
3. Cc1cc(=O)oc2c(F)c(O[C@H]3O[C@H](CO)[C@@H](O)[C@H](O)[C@H]3O)c(F)cc12 | 1,768 RFU
4. Cc1cc(=O)oc2cc(O[C@H]3O[C@H](CO)[C@@H](O)[C@H](O)[C@H]3O)cc(F)c12 | 828 RFU

---

# method: Fluorescence of control wells containing enzyme substrate in LB broth without spores
# Type: physicochemical
# measurement_parameters: pH 9 LB broth, substrate 0.3 mg/mL, 60° C., 10 seconds
The compounds listed here are annotated with their mean fluorescence values detected for the control wells.
measured_parameter: mean fluorescence values detected for the control wells (RFU)

1. Cc1cc(=O)oc2cc(O[C@H]3O[C@H](CO)[C@@H](O)[C@H](O)[C@H]3O)c(F)cc12 | 825
2. Cc1cc(=O)oc2cc(O[C@H]3O[C@H](CO)[C@@H](O)[C@H](O)[C@H]3O)cc(F)c12 | 501
3. Cc1cc(=O)oc2cc(O[C@H]3O[C@H](CO)[C@@H](O)[C@H](O)[C@H]3O)ccc12 | 494

---

# Tested on: Geobacillus stearothermophilus spores (ATCC 7953)
# method: Fluorescence measurements using enzyme substrates and Geobacillus stearothermophilus spores in LB broth
# Format: cell-based
# measurement_parameters: pH 7 LB broth, substrate 0.3 mg/mL, 5×10^6 spores, 60° C., +10 min
The compounds listed here are annotated with their MEASURED FLUORESCENCE, RFU +10 min.
measured_parameter: MEASURED FLUORESCENCE, RFU +10 min (RFU)

1) Cc1cc(=O)oc2cc(O[C@H]3O[C@H](CO)[C@@H](O)[C@H](O)[C@H]3O)ccc12 [MUG] | 15511
2) Cc1cc(=O)oc2cc(O[C@H]3O[C@H](CO)[C@@H](O)[C@H](O)[C@H]3O)cc(F)c12 [Example 2] | 28596
3) Cc1cc(=O)oc2cc(O[C@H]3O[C@H](CO)[C@@H](O)[C@H](O)[C@H]3O)c(F)cc12 [Example 1] | 79851
4) Cc1cc(=O)oc2c(F)c(O[C@H]3O[C@H](CO)[C@@H](O)[C@H](O)[C@H]3O)c(F)cc12 [Comparative Example A] | 89943

---

# method: Fluorescence of control wells containing enzyme substrate in LB broth without spores
# Type: physicochemical
# measurement_parameters: pH 8 LB broth, substrate 0.3 mg/mL, 60° C., +10 minutes
measured_parameter: mean fluorescence values detected for the control wells (RFU)

1. Cc1cc(=O)oc2cc(O[C@H]3O[C@H](CO)[C@@H](O)[C@H](O)[C@H]3O)c(F)cc12 [Example 1] | 845
2. Cc1cc(=O)oc2cc(O[C@H]3O[C@H](CO)[C@@H](O)[C@H](O)[C@H]3O)cc(F)c12 [Example 2] | 538
3. Cc1cc(=O)oc2cc(O[C@H]3O[C@H](CO)[C@@H](O)[C@H](O)[C@H]3O)ccc12 [MUG] | 535

---

# method: Measurement of enzyme substrate degradation (100° C. for 15 minutes) by fluorescence
# Assay type: physicochemical
# measurement_parameters: pH 9 LB broth, no spores, read at 60° C., +10 min
# Protocol: Luria-Bertani (LB) broth was prepared by dissolving tryptone (10 g/L), yeast extract (5 g/L), and NaCl (5 g/L) in deionized water. […] An 800-microliter sample of LB broth (pH 6) containing 6′-fluoro-4′-methylumbelliferyl α-D-glucopyranoside (0.3 mg/mL) (enzyme substrate of Example 1) was added to a 1.5 mL microcentrifuge tube and the capped tube was placed in a heating block at 100° C. for 15 minutes. […] A Synergy Neo2 fluorescence plate reader (BioTek Company) was used. […]
measured_parameter: MEASURED FLUORESCENCE, RFU +10 min (RFU)

1) Cc1cc(=O)oc2cc(O[C@H]3O[C@H](CO)[C@@H](O)[C@H](O)[C@H]3O)ccc12 | 575
2) Cc1cc(=O)oc2cc(O[C@H]3O[C@H](CO)[C@@H](O)[C@H](O)[C@H]3O)c(F)cc12 | 1388
3) Cc1cc(=O)oc2c(F)c(O[C@H]3O[C@H](CO)[C@@H](O)[C@H](O)[C@H]3O)c(F)cc12 | 18990
4) Cc1cc(=O)oc2cc(O[C@H]3O[C@H](CO)[C@@H](O)[C@H](O)[C@H]3O)cc(F)c12 | 584

---

# method: Measurement of enzyme substrate degradation (100° C. for 15 minutes) by fluorescence
# Format: physicochemical
# measurement_parameters: pH 7 LB broth, no spores, read at 60° C., 10 sec
measured_parameter: MEASURED FLUORESCENCE, RFU 10 sec (RFU)

1) Cc1cc(=O)oc2cc(O[C@H]3O[C@H](CO)[C@@H](O)[C@H](O)[C@H]3O)ccc12 | 823
2) Cc1cc(=O)oc2c(F)c(O[C@H]3O[C@H](CO)[C@@H](O)[C@H](O)[C@H]3O)c(F)cc12 | 12986
3) Cc1cc(=O)oc2cc(O[C@H]3O[C@H](CO)[C@@H](O)[C@H](O)[C@H]3O)c(F)cc12 | 1209
4) Cc1cc(=O)oc2cc(O[C@H]3O[C@H](CO)[C@@H](O)[C@H](O)[C@H]3O)cc(F)c12 | 831

---

# method: Measurement of enzyme substrate degradation (100° C. for 15 minutes) by fluorescence
# Format: physicochemical
# measurement_parameters: pH 7 LB broth, no spores, read at 60° C., +10 min
The compounds listed here are annotated with their MEASURED FLUORESCENCE, RFU +10 min.
measured_parameter: MEASURED FLUORESCENCE, RFU +10 min (RFU)

1) Cc1cc(=O)oc2cc(O[C@H]3O[C@H](CO)[C@@H](O)[C@H](O)[C@H]3O)c(F)cc12 [Example 1] | 1130
2) Cc1cc(=O)oc2c(F)c(O[C@H]3O[C@H](CO)[C@@H](O)[C@H](O)[C@H]3O)c(F)cc12 [Comparative Example A] | 13403
3) Cc1cc(=O)oc2cc(O[C@H]3O[C@H](CO)[C@@H](O)[C@H](O)[C@H]3O)ccc12 [MUG] | 745
